A collection of binders and their measured % Signal Inhibition Rep2
Target: T1, canine OX40L, full length membrane form, expressed on HEK293 cells (canine)
T1 chain: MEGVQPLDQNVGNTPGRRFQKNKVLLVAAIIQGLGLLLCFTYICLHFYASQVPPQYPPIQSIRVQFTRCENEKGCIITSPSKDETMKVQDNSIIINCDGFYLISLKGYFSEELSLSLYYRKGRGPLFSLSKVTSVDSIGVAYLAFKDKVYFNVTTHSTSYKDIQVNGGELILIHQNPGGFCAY
Assay: cell-based or functional assay

Binder	Value units	% Signal Inhibition Rep2
PMX037 (antibody, V domains shown, also called PMX37) VH: EVQLLESGGDLVKPGGSLRLSCVASGFTFSNYEMYWVRQAPGKGLEWVARFYESGSTTYSAEAVPGRFTISRDNAKNMAYLQMNSLRAEDTAVYYCASASSSSWRFDYWGQGTLVTVSS VL: SYVLTQLPSVSVTLGQTARITCGGDSIGSKNVYWFQQKLGQAPVLIIYDDRSRPSGIPERFSGANSGNTATLTISGALAEDEADYYCQVWDSSTGVFGGGTHLTVL	%	79.8
PMX107 (antibody, V domains shown) VH: AVQLVESGGDLVRPGGSLRLSCVASGFTFSSYHMNWVRQAPGKGLQWVAFINSGGSSTTYADVVRGRFTISRDYAKNTLFLQMNSLRAEDTAVYYCAIVSIWTHFDYWGQGTLVTVSS VL: SFVLTQLPSVSVTLRQTARITCGGDIIGSKNVYWYQQRLGQAPVLILYRDTNRPTGIPERFSGASSGNTATLTISGALAEDEADYYCQVWDNSNKAMFGGGTHLTVL	%	20.9
PMX058 (antibody, V domains shown, also called PMX58) VH: EVQLVESGGDLVKPEGSLRLSCVVSDFTFGSYGMSWVRQAPGKGLQWVAYISSDGRSTSYTDAVKGRFTISRDNAKNTLHLQMNSLRTEDTAVYYCAKLGRGFAFGYWGQGTLVTVSS VL: SYVLTQLPSKNVTLKQPAHITCGGDNIGSKSVHWYQQKLGQAPVLIIYYDSNRPTGIPERFSGANSGNTATLTISGALAEDEADYYCQVWDSSASVFGGGTHLTVL	%	35.3
PMX065 (antibody, V domains shown, also called PMX65) VH: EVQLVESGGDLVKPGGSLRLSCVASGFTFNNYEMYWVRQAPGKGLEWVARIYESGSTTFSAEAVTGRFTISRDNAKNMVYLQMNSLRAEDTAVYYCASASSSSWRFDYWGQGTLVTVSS VL: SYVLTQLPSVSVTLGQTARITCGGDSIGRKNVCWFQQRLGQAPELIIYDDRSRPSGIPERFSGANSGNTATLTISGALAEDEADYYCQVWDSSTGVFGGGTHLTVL	%	85.3
PMX040 (antibody, V domains shown, also called PMX40) VH: EVQLVESGGDLVKPGGSLRLSCVASGFTFSNFEMYWVRQAPGKGLEWVARIYESGTTTYHAEGVKGRFTISKDNVKNMAYLQMNSLRAEDTAVYYCTSASSSSWRFDYWGQGTLVTVSS VL: SYVLTQLPSVSVTLRQTARITCGGDSIGRKNVCWFQQKLGQAPILIIYDDSSRPSGIPERFSGANSGNTATLTISGALAEDEADYYCQVWDSSTGIFGGGTHLTVL	%	84.2
